Recorded pKd values for a group of binders are listed next.
- target: T1, Recombinant human TSLP-his (human, UniProt Q969D9 29-159)
- T1 construct: Prepared in-house; Amine-coupled to CM5 chip in SPR, loaded on APS sensors in Octet, biotin-labeled in the capture ELISA, unlabeled in the cell functional assays; also called human TSLP-his protein
- test-details: SPR, Biacore T200; protocol of Example 2
pKd: −log10 of the molar value.

- binder: "hu1C5F12E9-V7 (antibody, human IgG4 S228P, kappa, V domains shown) VH: QVQLVQSGAEVKKPGASVKVSCKASGYTFTTYWMHWVRQAPGQGLEWIGVIDPSDSDTTYNQKFKGRATLTVDTSSSTAYMELSSLRSEDTAVYYCTRSLDGYYDYWGQGTLVTVSS VL: DIQMTQSPSSLSASVGDRVTITCRPTENIYSYLAWYQQKPGKAPKLLIYFARTLAEGVPSRFSGSGSGTDFTLTISSLQPEDFATYYCQHHYGTPWTFGGGTKVEIKR"
  pKd: "> 10.03"
- binder: "hu1C5F12E9-V5 (antibody, human IgG4 S228P, kappa, V domains shown) VH: QVQLVQSGAEVKKPGASVKVSCKASGYTFTTYWMHWVRQAPGQGLEWMGVIDPSDSDTTYNQKFKGKATMTRDTSTSTVYMELSSLRSEDTAVYYCTRSLDGYYDYWGQGTLVTVSS VL: DIQMTQSPSSLSASVGDRVTITCRPTENIYSYLAWYQQKPGKSPKLLVYFARTLAEGVPSRFSGSGSGTDFTLTISSLQPEDFATYYCQHHYGTPWTFGGGTKVEIKR"
  pKd: "> 10.01"
- binder: "hu1C5F12E9-V3 (antibody, human IgG4 S228P, kappa, V domains shown) VH: QVQLVQSGAEVKKPGASVKVSCKASGYTFTTYWMHWVRQAPGQGLEWMGVIDPSDSDTTYNQKFKGRVTMTVDTSTSTVYMELSSLRSEDTAVYYCTRSLDGYYDYWGQGTLVTVSS VL: DIQMTQSPSSLSASVGDRVTITCRPTENIYSYLAWYQQKPGKSPKLLVYFARTLAEGVPSRFSGSGSGTDFTLTISSLQPEDFATYYCQHHYGTPWTFGGGTKVEIKR"
  pKd: "> 10.01"
- binder: "hu1C5F12E9-V11 (antibody, human IgG4 S228P, kappa, V domains shown) VH: QVQLVQSGAEVKKPGASVKVSCKASGYTFTTYWMHWVRQAPGQGLEWMGVIDPSDSDTTYNQKFKGKATMTRDTSTSTVYMELSSLRSEDTAVYYCTRSLDGYYDYWGQGTLVTVSS VL: DIQMTQSPSSLSASVGDRVTITCRPTENIYSYLAWYQQKPGKAPKLLIYFARTLAEGVPSRFSGSGSGTDFTLTISSLQPEDFATYYCQHHYGTPWTFGGGTKVEIKR"
  pKd: "> 9.96"
- binder: "hu1C5F12E9-V17 (antibody, human IgG4 S228P, kappa, V domains shown) VH: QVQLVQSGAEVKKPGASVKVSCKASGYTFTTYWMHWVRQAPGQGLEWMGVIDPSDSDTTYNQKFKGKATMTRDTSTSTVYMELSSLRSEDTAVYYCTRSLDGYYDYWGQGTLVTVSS VL: DIQMTQSPSSLSASVGDRVTITCRPTENIYSYLAWYQQKPGKSPKLLIYFARTLAEGVPSRFSGSGSGTDFTLTISSLQPEDFATYYCQHHYGTPWTFGGGTKVEIKR"
  pKd: "> 10.04"
